Below, each entry is listed with its recorded Population Pyknosed Nuclei (%).
- Test system: Fibroblast
- Protocol Summary: Multiplex assay against human fibroblast
- Format: toxicity, cell-based
- Measurement Context: 48 h, 1 µM, compound concentration 1 uM, number of replicates 2
Respond with the figure and its unit, in that order.

Worked set:
{"Compound": "O=C1Nc2ccc(C(=O)c3ccco3)cc2C1=Cc1cc(Cl)c(O)c(Cl)c1 [GW406108X]", "Assayed System": "Fibroblast", "Population Pyknosed Nuclei (%)": "12%"}
{"Compound": "O=C1NC(=O)C(c2ccccc2[N+](=O)[O-])=C1Nc1ccc(O)c(Cl)c1", "Assayed System": "Fibroblast", "Population Pyknosed Nuclei (%)": "6%"}
{"Compound": "CS(=O)(=O)c1ccc(C(=O)Nc2cc(F)cc(COc3cc(F)c(Br)cc3CN3CC[C@H](O)C3)c2)c(Cl)c1.O=CO", "Assayed System": "Fibroblast", "Population Pyknosed Nuclei (%)": "8%"}

Given the entry "O=C1NC(=NCc2cccs2)SC1=Cc1ccc2ncccc2c1" , report its measured Population Pyknosed Nuclei (%).
17%
